// reported PDGFR AVG % Activity at 3.0E−08 per item
Molecular target: PDGFRβ (Homo sapiens, UniProt P09619)
Sequence (P09619 33-1106): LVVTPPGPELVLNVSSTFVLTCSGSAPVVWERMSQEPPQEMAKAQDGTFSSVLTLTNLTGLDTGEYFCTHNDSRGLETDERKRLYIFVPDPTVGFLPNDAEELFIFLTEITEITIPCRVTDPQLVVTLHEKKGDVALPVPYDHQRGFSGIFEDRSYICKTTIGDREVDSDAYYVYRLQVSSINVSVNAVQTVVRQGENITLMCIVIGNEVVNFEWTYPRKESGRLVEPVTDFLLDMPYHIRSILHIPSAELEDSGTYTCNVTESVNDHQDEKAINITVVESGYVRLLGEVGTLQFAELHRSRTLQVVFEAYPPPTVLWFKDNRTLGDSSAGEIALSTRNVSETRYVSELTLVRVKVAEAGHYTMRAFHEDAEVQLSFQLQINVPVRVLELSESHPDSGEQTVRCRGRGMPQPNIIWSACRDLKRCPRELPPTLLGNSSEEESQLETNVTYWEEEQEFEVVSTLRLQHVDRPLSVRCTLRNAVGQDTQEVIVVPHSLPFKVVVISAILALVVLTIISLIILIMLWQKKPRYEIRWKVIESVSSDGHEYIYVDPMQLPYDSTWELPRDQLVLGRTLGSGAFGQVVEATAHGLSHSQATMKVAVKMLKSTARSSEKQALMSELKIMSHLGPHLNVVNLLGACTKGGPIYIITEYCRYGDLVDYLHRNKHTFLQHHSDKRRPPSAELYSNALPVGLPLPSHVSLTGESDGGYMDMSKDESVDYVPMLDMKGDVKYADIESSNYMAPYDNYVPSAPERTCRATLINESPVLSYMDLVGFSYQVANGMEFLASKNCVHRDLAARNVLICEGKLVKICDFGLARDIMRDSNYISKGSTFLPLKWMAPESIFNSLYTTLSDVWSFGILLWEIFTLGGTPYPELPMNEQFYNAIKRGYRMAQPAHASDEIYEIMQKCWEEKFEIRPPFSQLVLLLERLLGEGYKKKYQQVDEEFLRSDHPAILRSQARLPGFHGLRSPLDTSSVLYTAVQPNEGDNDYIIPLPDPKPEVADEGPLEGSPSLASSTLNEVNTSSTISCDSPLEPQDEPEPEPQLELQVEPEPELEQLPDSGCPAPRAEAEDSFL
Assay: Off-chip mobility-shift kinase assay (Caliper LABCHIP), PDGFR
Conditions: concentration 3.0E−08

- COCCOCCOCCOCCOCCNCc1ccc(C(=O)Nc2ccc(C)c(Nc3nccc(-c4cccnc4)n3)c2)cc1: 85%
- COCCOCCOCCOCCOCCOCCOCCN1CCN(Cc2ccc(C(=O)Nc3ccc(C)c(Nc4nccc(-c5cccnc5)n4)c3)cc2)CC1: 91%

Would you mind telling me what PDGFR AVG % Activity at 3.0E−08 value was observed for "COCCOCCOCCOCCOCCOCCOCCOCCOCCNCc1ccc(C(=O)Nc2ccc(C)c(Nc3nccc(-c4cccnc4)n3)c2)cc1" ?
75%

Would you kindly repeat that for "COCCOCCOCCOCCOCCOCCOCCOCCOCCN1CCN(Cc2ccc(C(=O)Nc3ccc(C)c(Nc4nccc(-c5cccnc5)n4)c3)cc2)CC1" ?
86%

Would you kindly repeat that for "COCCOCCOCCOCCOCCOCCOCCNCc1ccc(C(=O)Nc2ccc(C)c(Nc3nccc(-c4cccnc4)n3)c2)cc1" ?
100%
